Test Name: LDH cytotoxic activity assay, C6
Type: cell-based
Test Conditions: rat, C6 glioma cells, C6, 75 μg/mL
Use True when the recorded cytotoxicity at 24 h, 75 μg/mL is no lower than 70%; use False when it is lower.

Past entries and their recorded results:
- Compound Structure String: "CC(=O)OC[C@H]1O[C@@H](Nc2nc(-c3ccncc3)cc(-c3ccccc3C)n2)[C@H](OC(C)=O)[C@@H](OC(C)=O)[C@@H]1OC(C)=O"
  Assigned Class: "True"
- Compound Structure String: "CC(=O)OC[C@H]1O[C@@H](Nc2nc(-c3ccncc3)cc(-c3ccc(C)cc3)n2)[C@H](OC(C)=O)[C@@H](OC(C)=O)[C@@H]1OC(C)=O"
  Assigned Class: "True"

cytotoxicity at 24 h, 75 μg/mL >= 70% for CC(=O)OC[C@H]1O[C@@H](Nc2nc(-c3ccc(C)cc3)cc(-c3cccnc3)n2)[C@H](OC(C)=O)[C@@H](OC(C)=O)[C@@H]1OC(C)=O ?
False

// next record CC(=O)OC[C@H]1O[C@@H](Nc2nc(-c3ccc(C)cc3)cc(-c3ccccn3)n2)[C@H](OC(C)=O)[C@@H](OC(C)=O)[C@@H]1OC(C)=O
False

// next record Cc1ccccc1-c1cc(-c2cccnc2)nc(N[C@@H]2O[C@H](CO)[C@@H](O)[C@H](O)[C@H]2O)n1
True
